Reference source for all entries: patent US20030166932A1

Provide the reported Ki of each item.
measurement target: RARβ (Homo sapiens, UniProt P10826)
Sequence (P10826 whole entry, species assumed): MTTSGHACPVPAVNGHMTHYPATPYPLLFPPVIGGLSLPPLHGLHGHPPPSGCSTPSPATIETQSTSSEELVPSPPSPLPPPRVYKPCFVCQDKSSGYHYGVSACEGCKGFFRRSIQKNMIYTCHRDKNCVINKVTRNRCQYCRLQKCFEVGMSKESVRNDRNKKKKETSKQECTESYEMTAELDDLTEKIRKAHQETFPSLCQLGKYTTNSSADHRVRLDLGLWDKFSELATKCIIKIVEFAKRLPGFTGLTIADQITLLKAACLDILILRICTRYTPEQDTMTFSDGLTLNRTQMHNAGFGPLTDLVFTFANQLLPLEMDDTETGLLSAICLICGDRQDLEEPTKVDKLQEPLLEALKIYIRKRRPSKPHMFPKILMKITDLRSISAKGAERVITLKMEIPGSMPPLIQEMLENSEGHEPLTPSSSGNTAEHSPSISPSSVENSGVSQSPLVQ
assay explanation: ligand binding assay
setup conditions: read-out: RAR Bind. Ki (nM) β

Some entries whose results are on file:
molecular string: CC1=CCC(C)(C)c2cc(N(C)c3ccc(C(=O)O)cc3)c(C)cc21
Ki: > 10000 nM
--
molecular string: CCCN(c1ccc(C(=O)O)cc1)c1cc2c(cc1C)C(C)=CCC2(C)C
Ki: > 10000 nM
--
molecular string: Cc1cc2c(cc1N(C)c1ccc(C(=O)O)cc1)C(C)(C)CC=C2C(C)C
Ki: > 10000 nM
--
molecular string: CCN(c1ccc(C(=O)O)cc1)c1cc2c(cc1C)C(C(C)C)=CCC2(C)C
Ki: > 10000 nM
--
molecular string: CCN(c1ccc(C(=O)O)cc1)c1cc2c(cc1C)C(C(C)(C)C)=CCC2(C)C
Ki: > 10000 nM

Parameters: items (list). Returns: Ki for each item.
1. CCC1=CCC(C)(C)c2cc(N(CC)c3ccc(C(=O)O)cc3)c(C)cc21
2. CCN(c1ccc(C(=O)O)cc1)c1cc2c(cc1C)C(C)=CCC2(C)C
3. CCN(c1ccc(C(=O)O)cc1)c1ccc2c(c1)C(C(C)(C)C)=CCC2(C)C
4. C=CCN(c1ccc(C(=O)O)cc1)c1ccc2c(c1)C(C(C)(C)C)=CCC2(C)C
5. CCN(c1ccc2c(c1)C(C)=CCC2(C)C)c1ccc(C(=O)O)cn1
6. CCCN(c1ccc(C(=O)O)cc1)c1cc2c(cc1OCc1ccccc1)C(C)(C)CC=C2C(C)C
7. CCN(c1ccc(C(=O)O)cc1)c1cc2c(cc1OC(C)C)C(C)(C)CC=C2C(C)C
8. CCN(c1ccc(C(=O)O)cc1)c1cc2c(cc1OCc1ccccc1)C(C)(C)CC=C2C(C)C

Reply |
1: > 10000 nM; 2: > 10000 nM; 3: > 10000 nM; 4: > 10000 nM; 5: > 10000 nM; 6: 1200 nM; 7: 1200 nM; 8: 1800 nM

Ask | // map "CCC1=CCC(C)(C)c2cc(N(CC)c3ccc(C(=O)O)cc3)ccc21" to recorded Ki (system: RARβ (Homo sapiens, UniProt P10826))
Reply | > 10000 nM
